- target desc: Bromodomain adjacent to zinc finger domain protein 2B (Homo sapiens)
- experiment notes: qHTS Assay for Inhibitors of BAZ2B; further: nearly all actives have a fitted effect of over 60% in size
- assay conditions: AlphaScreen BAZ2B-H3K14Ac peptide displacement; series mostly up to 114 µM
In all, about 360,000 compounds went through this assay and about 16,000 (4.4%) were called active. Inconclusive results (about 9%) are left out. The call rests on the fitted dose curve; in most records, active means well fitted inhibition curve with a large enough effect; inconclusive means small, poorly fitted or top-dose-only effect; inactive means no such curve, though single readings can be large or run the other way. Only a selection was taken, and actives are over-represented in it overall.
Outcome codes: active, inactive

>>> discrete_label("O=C(CN1C(=O)COc2ccccc21)NCCN1CCc2ccccc2C1")
"inactive"
>>> discrete_label("Cc1ccc(CN(C(=O)c2ccccc2[N+](=O)[O-])c2ccccn2)cc1")
"inactive"
>>> discrete_label("CC(=O)c1cc(-c2ccccc2)n(CCC(=O)NC2CCCCCC2)c1C")
"active"
>>> discrete_label("COc1ccc2c(c1OC)C(=O)N(c1ccc(O)cc1)C2")
"inactive"
>>> discrete_label("Cc1ccccc1Nc1scc(-c2ccc(Br)cc2)[n+]1-c1ccccc1C")
"active"
>>> discrete_label("O=C(CCS(=O)(=O)c1ccccc1)NC1CCCC1")
"inactive"

----------
- target desc: Bromodomain adjacent to zinc finger domain protein 2B (Homo sapiens)
- experiment notes: qHTS Assay for Inhibitors of BAZ2B; further: nearly all actives have a fitted effect of over 60% in size
- assay conditions: AlphaScreen BAZ2B-H3K14Ac peptide displacement; series mostly up to 114 µM
In all, about 360,000 compounds went through this assay and about 16,000 (4.4%) were called active. Another 9% or so got no clear call; they are omitted. The call rests on the fitted dose curve; in most records, active means well fitted inhibition curve with a large enough effect; inconclusive means small, poorly fitted or top-dose-only effect; inactive means no such curve, though single readings can be large or run the other way. Many of the other results were omitted from the sample, so actives are more common in it than they were.
Outcome codes: active, inactive

>>> discrete_label("OC(CNCCc1ccc(Cl)cc1Cl)COc1ccccc1 (centres undefined)")
"active"
>>> discrete_label("COc1cccc(/C=C2/SC(=S)N(CC(=O)NC3C=CS(=O)(=O)C3)C2=O)c1 (centres undefined)")
"inactive"
>>> discrete_label("CCOc1ccc(CNC(=O)c2ccc3c(c2)nnn3C2CCCC2)cc1")
"inactive"
>>> discrete_label("O=S(=O)(c1ccccc1)c1nc(-c2ccccc2)oc1NCCCN1CCOCC1")
"inactive"
>>> discrete_label("COc1cc(C(=O)NC(=S)NCc2ccco2)cc(OC)c1OC")
"inactive"
>>> discrete_label("O=C(CCCOc1ccccc1)Nc1cccc(C(=O)O)c1")
"inactive"
>>> discrete_label("COc1ccc(-c2cn3nc(N4CCC(C(=O)Nc5cccc(C)c5C)CC4)sc3n2)cc1")
"inactive"
>>> discrete_label("Cc1cc(C)nc(N/N=C/c2c(C)oc3ccccc23)n1")
"inactive"
>>> discrete_label("Cc1ccc(/C=C2\\SC(=S)N(CCC(=O)Nc3ccc(O)cc3)C2=O)cc1")
"inactive"
>>> discrete_label("O=C(NCc1ccccc1)C1CCN(S(=O)(=O)c2ccc3[nH]c(=O)ccc3c2)CC1")
"inactive"
>>> discrete_label("Cc1cc(C)nc(N/N=C/c2c(CO)cnc(C)c2O)n1")
"active"
>>> discrete_label("COc1cc(/C=C2/SC(=S)N(Cc3ccccc3)C2=O)cc(OC)c1O")
"active"
>>> discrete_label("O=C(NC1CCN(Cc2ccccc2)CC1)c1ccc(Cn2c(=O)c3ccccc3n(Cc3cccc(F)c3)c2=O)cc1")
"inactive"
>>> discrete_label("NC(=O)CSc1nc2c(oc3ccccc32)c(=O)n1Cc1ccccc1")
"inactive"
>>> discrete_label("Clc1cccc(-c2nc3nc4ccccc4nc3n2Cc2ccco2)c1")
"inactive"
>>> discrete_label("Nc1ccccc1SC(C[N+](=O)[O-])c1ccccc1 (centres undefined)")
"active"
>>> discrete_label("CCN(Cc1ccccc1)Cc1c(O)ccc2c(=O)c(-c3ccc(Cl)cc3Cl)coc12")
"inactive"
>>> discrete_label("Cc1nc2nc(SCC(=O)NC3CCC(C)CC3)nn2c(C)c1Cc1ccccc1Cl (centres undefined)")
"inactive"
>>> discrete_label("Cc1cc(OCCCCOc2ccc(C#N)cc2)ccc1[N+](=O)[O-]")
"inactive"
>>> discrete_label("Cc1cccc(CNC(=O)c2cnc3sc(N4CCCCC4)nn3c2=O)c1")
"inactive"
>>> discrete_label("CCc1nc(-c2cc(S(=O)(=O)N3CCN(c4ccc(OC)cc4)CC3)ccc2OC)no1")
"inactive"
>>> discrete_label("CC(=O)Nc1ccc(NC(=O)c2cc3sccc3n2Cc2ccc(F)cc2)cc1")
"inactive"
>>> discrete_label("CCN(CC)S(=O)(=O)c1ccc2c(c1)N(CC(=O)NCC(C)c1ccccc1)C(=O)CO2 (centres undefined)")
"inactive"
>>> discrete_label("Cc1cc(NC(=O)CSc2nc3cc(Cl)ccc3c(=O)n2Cc2ccco2)no1")
"inactive"
>>> discrete_label("Cc1cc(OCC(=O)NC2CCN(C)CC2)ccc1[N+](=O)[O-]")
"inactive"
>>> discrete_label("OC(CNCc1ccc2c(c1)OCO2)COc1ccccc1 (centres undefined)")
"inactive"
>>> discrete_label("Cc1ccccc1CNC(=O)c1cccc(NC(=O)c2nsc3ccccc23)c1")
"inactive"
>>> discrete_label("CCN1CCN(CCCNC(=O)c2cnn(-c3ccc(C)cc3C)c2C2CCN(C(=O)OC(C)(C)C)CC2)CC1")
"inactive"
>>> discrete_label("Cc1nc2c(c(=O)n1Cc1ccco1)c1nc3ccccc3nc1n2Cc1ccccc1")
"active"

----------
- target desc: Bromodomain adjacent to zinc finger domain protein 2B (Homo sapiens) (UniProt Q9UIF8)
- Sequence (Q9UIF8 whole entry, looked up, the tested form may be a part): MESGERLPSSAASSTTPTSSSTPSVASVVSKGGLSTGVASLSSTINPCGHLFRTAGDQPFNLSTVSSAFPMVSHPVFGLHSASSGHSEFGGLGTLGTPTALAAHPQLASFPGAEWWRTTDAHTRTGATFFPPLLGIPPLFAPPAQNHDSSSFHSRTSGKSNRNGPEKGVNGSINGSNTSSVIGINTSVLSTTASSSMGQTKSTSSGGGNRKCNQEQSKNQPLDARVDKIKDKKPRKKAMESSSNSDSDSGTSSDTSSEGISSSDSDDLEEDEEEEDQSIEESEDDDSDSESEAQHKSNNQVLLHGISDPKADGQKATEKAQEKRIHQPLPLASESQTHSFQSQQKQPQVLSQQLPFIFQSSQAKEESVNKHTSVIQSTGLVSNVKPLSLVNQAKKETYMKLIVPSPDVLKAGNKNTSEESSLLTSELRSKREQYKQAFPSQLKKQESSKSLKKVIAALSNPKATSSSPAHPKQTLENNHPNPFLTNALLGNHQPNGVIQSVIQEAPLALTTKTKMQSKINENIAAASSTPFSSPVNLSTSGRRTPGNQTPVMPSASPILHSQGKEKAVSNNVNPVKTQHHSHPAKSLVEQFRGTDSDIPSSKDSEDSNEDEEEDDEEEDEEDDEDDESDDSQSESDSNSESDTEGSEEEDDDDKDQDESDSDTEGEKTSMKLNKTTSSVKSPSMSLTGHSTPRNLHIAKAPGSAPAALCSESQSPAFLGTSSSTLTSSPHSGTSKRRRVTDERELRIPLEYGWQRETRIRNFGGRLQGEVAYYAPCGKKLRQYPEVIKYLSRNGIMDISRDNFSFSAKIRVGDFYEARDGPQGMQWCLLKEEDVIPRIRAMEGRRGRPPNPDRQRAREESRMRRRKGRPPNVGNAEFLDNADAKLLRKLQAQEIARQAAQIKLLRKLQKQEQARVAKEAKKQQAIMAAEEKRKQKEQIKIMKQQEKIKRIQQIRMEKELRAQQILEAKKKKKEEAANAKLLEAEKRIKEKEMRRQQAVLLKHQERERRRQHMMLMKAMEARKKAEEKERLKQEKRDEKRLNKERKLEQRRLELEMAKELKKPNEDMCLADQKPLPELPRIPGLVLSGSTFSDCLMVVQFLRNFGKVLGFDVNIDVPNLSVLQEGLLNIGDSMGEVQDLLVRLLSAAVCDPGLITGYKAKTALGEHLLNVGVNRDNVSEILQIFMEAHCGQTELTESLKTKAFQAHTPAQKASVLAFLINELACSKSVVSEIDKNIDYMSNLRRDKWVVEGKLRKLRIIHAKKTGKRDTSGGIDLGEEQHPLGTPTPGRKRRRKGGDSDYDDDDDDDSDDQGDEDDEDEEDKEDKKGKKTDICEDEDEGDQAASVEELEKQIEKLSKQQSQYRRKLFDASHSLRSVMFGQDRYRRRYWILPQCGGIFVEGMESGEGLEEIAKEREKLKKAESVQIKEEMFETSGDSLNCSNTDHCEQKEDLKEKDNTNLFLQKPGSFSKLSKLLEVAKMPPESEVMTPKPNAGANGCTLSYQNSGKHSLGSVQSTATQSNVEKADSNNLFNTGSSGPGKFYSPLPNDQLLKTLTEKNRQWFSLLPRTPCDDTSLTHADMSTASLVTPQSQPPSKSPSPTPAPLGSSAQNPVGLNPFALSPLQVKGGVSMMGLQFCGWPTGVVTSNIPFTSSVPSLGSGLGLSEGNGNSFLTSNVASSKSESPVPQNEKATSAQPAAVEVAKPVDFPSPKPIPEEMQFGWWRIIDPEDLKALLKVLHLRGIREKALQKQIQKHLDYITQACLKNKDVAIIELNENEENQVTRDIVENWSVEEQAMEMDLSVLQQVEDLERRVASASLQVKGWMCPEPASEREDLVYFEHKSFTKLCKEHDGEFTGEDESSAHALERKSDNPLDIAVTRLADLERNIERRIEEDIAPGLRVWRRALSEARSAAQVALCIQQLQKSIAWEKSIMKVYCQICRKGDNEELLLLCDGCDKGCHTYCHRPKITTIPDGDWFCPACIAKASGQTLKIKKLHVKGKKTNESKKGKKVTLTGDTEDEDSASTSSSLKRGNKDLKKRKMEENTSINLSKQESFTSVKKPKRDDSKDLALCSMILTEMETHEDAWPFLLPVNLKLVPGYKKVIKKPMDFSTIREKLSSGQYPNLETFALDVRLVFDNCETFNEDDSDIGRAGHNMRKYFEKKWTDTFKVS
- experiment notes: qHTS Assay for Inhibitors of BAZ2B; further: nearly all actives have a fitted effect of over 60% in size
- assay conditions: AlphaScreen BAZ2B-H3K14Ac peptide displacement; series mostly up to 114 µM
Out of some 360,000 compounds screened, about 16,000 (4.4%) were called active. Not shown: some 9% with an inconclusive outcome. Calls come from the whole dose curve; as a rule, active = well fitted inhibition curve with a large enough effect; inconclusive = small, poorly fitted or top-dose-only effect; inactive = no such curve, though single readings can be large or run the other way. What follows is part of a selection rich in actives, with near analogues and random picks from the rest.
Outcome codes: active, inactive

>>> discrete_label("CCc1ccccc1NC(=O)c1ccc2nc(CCc3ccccc3)oc2c1")
"inactive"
>>> discrete_label("Cc1csc2nc(COC(=O)c3ccccc3NC(=O)c3ccccc3Cl)cc(=O)n12")
"inactive"
>>> discrete_label("COc1ccc(NC(=O)Cn2c(=O)n(CCC(C)C)c(=O)c3cccnc32)cc1Cl")
"inactive"
>>> discrete_label("CCOc1ccccc1NC(=O)Cn1nnc(C(=O)NCc2cccs2)c1N")
"inactive"
>>> discrete_label("CCN(CC)c1cc(NC2CCCCC2)c2c3c(onc13)-c1ccccc1C2=O")
"active"
>>> discrete_label("COc1cc2ccccc2cc1C(=O)Nc1cccc(-c2nc3ccccc3o2)c1")
"inactive"
>>> discrete_label("CCOc1ccccc1NC(=O)Cc1cccs1")
"active"
>>> discrete_label("O=C(Cn1ncc2c3ccccc3n(Cc3ccccc3)c2c1=O)NC1CCCCCC1")
"inactive"
>>> discrete_label("O=C(CC(c1cccs1)N1Cc2ccccc2C1=O)Nc1ccc(F)c(F)c1 (centres undefined)")
"inactive"
>>> discrete_label("CC(=O)Nc1cccc(NC(=O)CSc2nccn2Cc2ccc(F)cc2)c1")
"inactive"
>>> discrete_label("Cn1c(SCC(=O)N2CCCc3ccccc32)ncc(C(=O)Nc2ccc(F)cc2)c1=O")
"inactive"
>>> discrete_label("C/C(=N\\NC(=O)c1ccoc1C)c1ccccc1O")
"active"
>>> discrete_label("COc1ccc(-c2nc3n(c2Br)CCC3)cc1")
"active"
>>> discrete_label("Cc1ccc(C2C3=C(Nc4[nH]n(-c5ccccc5)c(=O)c42)c2ccccc2C3=O)cc1 (centres undefined)")
"active"
>>> discrete_label("Cc1ccccc1S(=O)(=O)N1[C@@H](c2cccc(Cl)c2)C(C(=O)O)=CC[C@H]1c1ccc(Cl)cc1")
"active"
>>> discrete_label("COc1ccc(NC(=O)CSc2nc3ccccc3c(=O)n2C)cc1")
"inactive"
>>> discrete_label("Cc1ccccc1-n1c(SCC(=O)Nc2cccc3ccccc23)nc(O)cc1=O")
"inactive"
>>> discrete_label("CCc1ccc(N2C(=O)CN(S(=O)(=O)CC)CC2(C)C(=O)NC2CCCCC2)cc1 (centres undefined)")
"inactive"
>>> discrete_label("Cc1ccc(S(=O)(=O)N2[C@@H](c3ccccc3F)C(C(=O)O)=CC[C@H]2c2ccc(Cl)cc2)cc1")
"inactive"
>>> discrete_label("CCOC(=O)C1=C(C)NC(SC)=NC1c1ccccc1 (centres undefined)")
"inactive"
>>> discrete_label("COc1ccc(-c2nc(SCC(=O)N3CCCCC3C)n[nH]2)cc1 (centres undefined)")
"inactive"
>>> discrete_label("COc1ccccc1NC(=O)c1cc(C2CC2)nc2c1c(C)nn2-c1ccc(C)cc1")
"inactive"
>>> discrete_label("COc1ccc(-c2nc(SCC(=O)N3CCCC3)n[nH]2)cc1")
"inactive"
>>> discrete_label("COC(=O)C1=C(C)N(C)C(=S)NC1c1ccccc1 (centres undefined)")
"inactive"
>>> discrete_label("Cc1cc(C(=O)NNC(=O)c2ccccc2O)c(C)o1")
"inactive"
>>> discrete_label("Cc1ccc(-c2ccnc3[nH]n(-c4ccccc4)c(=O)c23)cc1")
"inactive"
>>> discrete_label("Cc1cc(N2CCN(S(=O)(=O)c3ccc(C)c(C)c3)CC2)c2ccccc2n1")
"inactive"
>>> discrete_label("CCOC(=O)c1scc(-c2ccccc2)c1S(=O)(=O)Nc1ccccc1F")
"inactive"
>>> discrete_label("O=C(CSc1nccn1Cc1ccc(F)cc1)NCc1ccccc1")
"inactive"
>>> discrete_label("CCOC(=O)c1ccc(NC(=O)Cc2cccs2)cc1")
"inactive"
>>> discrete_label("CC1Cc2cc(S(=O)(=O)CCC(=O)Nc3ccc(F)c(Cl)c3)ccc2N1C(=O)C1CC1 (centres undefined)")
"inactive"
>>> discrete_label("Cc1cccc(C2C3=C(CCCC3=O)N=C3c4ccccc4C(=O)C32)c1 (centres undefined)")
"inactive"
>>> discrete_label("COc1ccc(NC(=O)CSc2nc(N)c(-c3ccccc3)c(=O)[nH]2)cc1")
"inactive"
>>> discrete_label("Cc1nnc(NC(=O)CSc2nccn2-c2cccc(C)c2C)s1")
"inactive"
